These measurements were taken from ChEMBL document CHEMBL1131253.

Tested System: UniProtKB P47824
Sequence (P47824 whole entry): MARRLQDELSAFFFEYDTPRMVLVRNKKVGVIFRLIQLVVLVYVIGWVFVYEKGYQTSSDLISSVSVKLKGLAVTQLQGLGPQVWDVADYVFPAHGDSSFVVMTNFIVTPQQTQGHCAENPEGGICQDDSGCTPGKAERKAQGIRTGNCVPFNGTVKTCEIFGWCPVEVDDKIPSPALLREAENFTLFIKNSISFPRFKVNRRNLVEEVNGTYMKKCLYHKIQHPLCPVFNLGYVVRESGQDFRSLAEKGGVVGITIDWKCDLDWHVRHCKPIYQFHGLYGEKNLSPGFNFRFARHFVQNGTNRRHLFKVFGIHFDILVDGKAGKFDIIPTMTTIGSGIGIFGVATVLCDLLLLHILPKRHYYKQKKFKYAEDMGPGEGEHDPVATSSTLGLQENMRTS
Protocol: Compound was tested in a functional ion channel assay of ATP-induced current at recombinant rat P2X1 receptor expressed in Xenopus oocytes.
Property: IC50 (µM)
Dear colleague, please return just the value in µM, with no unit written.

# IC50 (compound: Cc1nc(/N=N/c2cc(S(=O)(=O)O)ccc2S(=O)(=O)O)c2c(c1O)COP(=O)(O)OC2 ) is 10.2

# IC50 (compound: Cc1nc(/N=N/c2ccc(S(=O)(=O)O)cc2S(=O)(=O)O)c(COP(=O)(O)O)c(C=O)c1O ) is 0.0985

# IC50 (compound: Cc1nc(/N=N/c2cc(S(=O)(=O)O)ccc2S(=O)(=O)O)c(COP(=O)(O)O)c(C=O)c1O ) is 0.0425
